Item-by-item account of Population Pyknosed Nuclei (%)
test system: Fibroblast; test: Multiplex assay against human fibroblast; assay type: toxicity, cell-based; conditions: 12 h, 1 µM, compound concentration 1 uM, replicate 2
measured.attribute: Population Pyknosed Nuclei (%)

[
  {
    "smiles.record": "CC(C)N1CCC(C)(C)c2cc(C#Cc3ccc(C(=O)O)cc3)ccc21",
    "target.or.test.system": "Fibroblast",
    "measured.attribute": "Population Pyknosed Nuclei (%)",
    "unit.of.measurement": "%",
    "assay.result": 8
  },
  {
    "smiles.record": "N#Cc1cnc(Nc2cc(NC[C@H]3CNCCO3)c(C(F)(F)F)cn2)cn1",
    "target.or.test.system": "Fibroblast",
    "measured.attribute": "Population Pyknosed Nuclei (%)",
    "unit.of.measurement": "%",
    "assay.result": 17
  },
  {
    "smiles.record": "CCOc1cc2ncc(C#N)c(Nc3ccc(OCc4cccc(F)c4)c(Cl)c3)c2cc1NC(=O)/C=C/CN(C)C",
    "target.or.test.system": "Fibroblast",
    "measured.attribute": "Population Pyknosed Nuclei (%)",
    "unit.of.measurement": "%",
    "assay.result": 8
  },
  {
    "smiles.record": "COc1cc2c(NC3CCN(C(C)C)CC3)nc(N3CCC(F)(F)CC3)nc2cc1OCCCN1CCCC1",
    "target.or.test.system": "Fibroblast",
    "measured.attribute": "Population Pyknosed Nuclei (%)",
    "unit.of.measurement": "%",
    "assay.result": 11
  }
]
